For each record, write down the corresponding amyloid nucleation score.
Assay: amyloid nucleation score (Sup35N fusion, yeast selection) (log enrichment); library NNK1; higher = more nucleation; inactive = no reads after selection;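 note: zero at mode of non-aggregating sequences after 7 days selection at 30°C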

- substance: "VYYIVFPTTLSVDKFFPIWC"
  result: 2.26

Hey, can you go through the list below and give me amyloid nucleation score for every item?
1. ANLDYWRSSTFTEHMVGLNR
2. HCLAGNLDLAMVRVRSPTCL
3. DSYILRGNSVLGGGTFSVIR
4. FNLVKT
5. LRTDALFY

Result:
-0.469
0.032
0.062
0.704
0.577

For every record below, what is its amyloid nucleation score?
1. YAFGHFCTDADSFCGRCVIL
2. KGAGMQTTQCVCKVYKLSWA

Result:
1. 0.09
2. 0.281

Would you be so kind as to report amyloid nucleation score for each listed record?
1. KRMVCDVCIDVMPSEFKQAG
2. ALQTPFSKNMEYCCNQ

Result:
1: 1.02; 2: 0.222

// each substance listed below needs its amyloid nucleation score
1. KNDDTRFR
2. TQRVIGERRMNADCRACRLR
3. HVDFQVASSDEDLIHLFLYH
4. YPLVFRIMDVVSPPPHWVLF
5. PLWLCGGFQQWASGCRSVGL

Result:
[0.358, -0.061, 0.258, -0.219, -1.06]
